- Tested on: HepG2
- testDetails: cytotoxicity call (relative viability < 0.9)
- studyConditions: 10 µM
Out of some 39,000 compounds screened, about 3,300 (8.5%) were called active. This is one part of a sample in which actives are shown more often than they occur.
measurementKind: cytotoxicity call

moleculeSmiles | measurementTarget | reportedResult
C[C@H]1CCCCO[C@@H](CN(C)C(=O)Nc2ccc(F)cc2)[C@@H](C)CN([C@@H](C)CO)C(=O)c2cc(NS(=O)(=O)c3ccc(Cl)cc3)ccc2O1 | HepG2 | inactive
C[C@@H]1CCCCO[C@H](CN(C)C(=O)Nc2ccccc2)[C@@H](C)CN([C@H](C)CO)C(=O)c2cc(NS(=O)(=O)c3ccc(Cl)cc3)ccc2O1 | HepG2 | inactive
C[C@@H]1CN([C@@H](C)CO)C(=O)c2cc(NS(=O)(=O)c3ccc(Cl)cc3)ccc2O[C@@H](C)CCCCO[C@@H]1CN(C)C(=O)Nc1ccc(F)cc1 | HepG2 | inactive

====

- Tested on: HepG2
- testDetails: cytotoxicity call (relative viability < 0.9)
- studyConditions: 10 µM
Out of some 39,000 compounds screened, about 3,300 (8.5%) were called active. This is one part of a sample in which actives are shown more often than they occur.

moleculeSmiles | cytotoxicity call
C[C@H](CO)N1C[C@H](C)[C@@H](CN(C)C(=O)Nc2cccc3ccccc23)OCCCC[C@H](C)Oc2ccc(NC(=O)c3ccncc3)cc2C1=O | inactive
C[C@@H]1CCCCO[C@H](CN(C)C(=O)Nc2cccc3ccccc23)[C@@H](C)CN([C@H](C)CO)C(=O)c2cc(NC(=O)c3ccccc3)ccc2O1 | inactive
C[C@H](CO)N1C[C@H](C)[C@H](CN(C)Cc2ccc(C(=O)O)cc2)Oc2c(NC(=O)Nc3ccc(C(F)(F)F)cc3)cccc2C1=O | inactive
C[C@@H]1CN([C@H](C)CO)C(=O)c2cc(NC(=O)c3ccccc3)ccc2O[C@@H](C)CCCCO[C@@H]1CN(C)C(=O)Nc1cccc2ccccc12 | inactive
C[C@@H]1CCCCO[C@@H](CN(C)C(=O)Nc2cccc3ccccc23)[C@@H](C)CN([C@@H](C)CO)C(=O)c2cc(NC(=O)c3ccccc3)ccc2O1 | inactive
C[C@H](CO)N1C[C@H](C)[C@H](CN(C)C(=O)Nc2cccc3ccccc23)Oc2ccc(NC(=O)NC3CCCCC3)cc2CC1=O | inactive
C[C@@H]1CCCCO[C@H](CN(C)C(=O)Nc2cccc3ccccc23)[C@H](C)CN([C@@H](C)CO)C(=O)c2cc(NC(=O)c3ccccc3)ccc2O1 | inactive
C[C@@H]1CCCCO[C@@H](CN(C)C(=O)Nc2cccc3ccccc23)[C@H](C)CN([C@@H](C)CO)C(=O)c2cc(NC(=O)c3ccccc3)ccc2O1 | active
COc1ccc(S(=O)(=O)N(C)C[C@@H]2Oc3cc(-c4ccccc4OC)ccc3S(=O)(=O)N([C@H](C)CO)C[C@H]2C)cc1 | inactive
C[C@@H]1CN([C@H](C)CO)C(=O)c2cc(NC(=O)c3ccccc3)ccc2O[C@@H](C)CCCCO[C@H]1CN(C)C(=O)Nc1cccc2ccccc12 | active
C[C@@H]1CCCCO[C@H](CN(C)C(=O)Nc2cccc3ccccc23)[C@@H](C)CN([C@@H](C)CO)C(=O)c2cc(NC(=O)c3ccncc3)ccc2O1 | active
COc1ccc(S(=O)(=O)N(C)C[C@H]2Oc3cc(-c4ccccc4OC)ccc3S(=O)(=O)N([C@H](C)CO)C[C@H]2C)cc1 | active
COc1ccc(S(=O)(=O)N(C)C[C@@H]2Oc3cc(-c4ccccc4OC)ccc3S(=O)(=O)N([C@H](C)CO)C[C@@H]2C)cc1 | active
